- TARGET_OR_SYSTEM: human cyclin D1-CDK4 (Homo sapiens, UniProt P11802)
- Sequence (P11802 whole entry): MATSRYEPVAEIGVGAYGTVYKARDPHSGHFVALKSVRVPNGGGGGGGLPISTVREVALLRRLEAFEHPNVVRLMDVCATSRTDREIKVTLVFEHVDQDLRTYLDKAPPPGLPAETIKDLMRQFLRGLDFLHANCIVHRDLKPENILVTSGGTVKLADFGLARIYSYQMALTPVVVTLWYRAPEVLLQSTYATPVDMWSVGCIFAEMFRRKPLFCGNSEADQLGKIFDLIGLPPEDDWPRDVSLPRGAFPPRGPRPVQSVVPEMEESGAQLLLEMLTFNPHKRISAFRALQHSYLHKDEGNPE
- Sequence (P24385 whole entry partner): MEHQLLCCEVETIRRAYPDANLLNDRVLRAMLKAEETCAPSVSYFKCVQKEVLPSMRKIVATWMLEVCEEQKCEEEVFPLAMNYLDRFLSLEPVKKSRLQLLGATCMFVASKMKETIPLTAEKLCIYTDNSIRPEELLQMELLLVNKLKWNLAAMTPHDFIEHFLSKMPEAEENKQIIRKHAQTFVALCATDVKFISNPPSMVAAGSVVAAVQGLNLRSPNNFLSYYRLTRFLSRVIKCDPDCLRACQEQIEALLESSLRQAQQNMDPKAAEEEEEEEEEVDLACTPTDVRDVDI
- METHOD_SUMMARY: FlashPlate kinase assay, cyclin D1-CDK4, Rb substrate
- Assay type: biochemical
- CONDITION_SUMMARY: recombinant cyclin D1-CDK4, Rb phosphorylation, 1 μM ATP
PROPERTY: IC50 (nM)

// worked examples, IC50 included
[[record]]
molecule = "CCN(CC)CCOc1ccc(Nc2nc(N)c(C(=O)c3cccc(OC)c3)s2)cc1"
property = "IC50"
unit_abbrev = "nM"
measured = 41

[[record]]
molecule = "CCNCCOc1ccc(Nc2nc(N)c(C(=O)c3ccc4c(c3)OCCO4)s2)cc1"
property = "IC50"
unit_abbrev = "nM"
measured = 44

[[record]]
molecule = "CCN(CC)CCOc1ccc(Nc2nc(N)c(C(=O)c3ccc4c(c3)CCO4)s2)cc1"
property = "IC50"
unit_abbrev = "nM"
measured = 100

[[record]]
molecule = "Nc1nc(Nc2ccc(OCCN3CCOCC3)cc2)sc1C(=O)c1cccc(F)c1"
property = "IC50"
unit_abbrev = "nM"
measured = 73

[[record]]
molecule = "COc1ccc(C(=O)c2sc(Nc3ccc(OC4CCCNC4)cc3)nc2N)cc1F (centres unmarked)"
property = "IC50"
unit_abbrev = "nM"
measured = 96


P = CN(C)CCOc1ccc(Nc2nc(N)c(C(=O)c3cccc(C4CC4)c3)s2)cc1
Q = COc1ccc(C(=O)c2sc(Nc3ccc(OCCCN)cc3)nc2N)cc1F
R = CN(C)CCOc1ccc(Nc2nc(N)c(C(=O)c3ccc4c(c3)OCO4)s2)cc1
Request: Reorder: IC50, max to min. Please express your ranking as an ordered list of the labels.
Response: Q, R, P
